Cited source: the supplement of paper PMC6279402

- Test system: A549
- protocol: relative viability (normalised to negative control = 1, bortezomib = 0) (fraction); higher = less cytotoxic
- setup conditions: inflammatory serum-free RHB-A with cytokines + LPS; 5 d + 24 h CellTiter-Blue; compound 30 nM; GSK126 pretreatment: none (vehicle)
Where a name gives a salt, the structure may show the parent alone.
recorded metric: relative viability
One number for each entry.

compound	relative viability
Cc1ccc(S(=O)(=O)Nc2nc3ccccc3nc2Nc2ccc3nsnc3c2)cc1	0.774
COc1cc(OC)c(/C=C/S(=O)(=O)Cc2ccc(OC)c(NCC(=O)O)c2)c(OC)c1	0.303
C[C@@H](CN1CC(=O)NC(=O)C1)N1CC(=O)NC(=O)C1	0.832
COc1ccc(-c2cc3c(C)nc(N)nc3n(C3CCC(OCCO)CC3)c2=O)cn1 (stereo not drawn)	0.634
CCc1c2c(nc3ccc(OC(=O)N4CCC(N5CCCCC5)CC4)cc13)-c1cc3c(c(=O)n1C2)COC(=O)[C@]3(O)CC [Irinotecan HCl; Irinotecan hydrochloride]	0.895
O=C(O)C(=O)O.[NH-][C@@H]1CCCC[C@H]1[NH-].[Pt+2]	0.782

The following compounds each have a reported value; give each one's relative viability.
1. Nc1ncnc2c1c(-c1cccc(OCc3ccccc3)c1)cn2C1CC(CN2CCCC2)C1 (stereo not drawn)
2. C[C@@H]1CCN(C(=O)CC#N)C[C@@H]1N(C)c1ncnc2[nH]ccc12

[0.748, 0.99]

###

- System: A549
- protocol: relative viability (normalised to negative control = 1, bortezomib = 0) (fraction); higher = less cytotoxic
- setup conditions: inflammatory serum-free RHB-A with cytokines + LPS; 5 d + 24 h CellTiter-Blue; compound 30 nM; GSK126 pretreatment: 5 uM GSK126
relative viability under 0.8 gets label 1, anything at or over 0.8 gets label 0.

Use these answered entries as a reference point.
molecule	target under test	qualitative label
CC(C)CC(=O)Nc1n[nH]c2c1CN(C(=O)C1CCN(C)CC1)C2(C)C	A549	label 0
Nc1nccc(Oc2ccc(NC(=O)c3c[nH]cc(-c4ccc(F)cc4)c3=O)cc2F)c1Cl	A549	label 0
COc1cc(OC)c(/C=C/S(=O)(=O)Cc2ccc(OC)c(NCC(=O)O)c2)c(OC)c1	A549	label 1

State whether 0.8 exceeds relative viability recorded for O=C(NC[C@H](O)CO)c1ccncc1Nc1ccc(I)cc1F .
label 1

State whether 0.8 exceeds relative viability recorded for CC(=O)O[C@@]12CO[C@@H]1C[C@H](O)[C@@]1(C)C(=O)[C@H](O)C3=C(C)[C@@H](OC(=O)[C@H](O)[C@@H](NC(=O)OC(C)(C)C)c4ccccc4)C[C@@](O)([C@@H](OC(=O)c4ccccc4)[C@H]21)C3(C)C [Docetaxel] .
label 1

State whether 0.8 exceeds relative viability recorded for NC(=O)NO [Hydroxyurea] .
label 0

State whether 0.8 exceeds relative viability recorded for Nc1nc(F)nc2c1ncn2[C@@H]1O[C@H](COP(=O)(O)O)[C@@H](O)[C@@H]1O [Fludarabine; Fludarabine phosphate] .
label 0

State whether 0.8 exceeds relative viability recorded for CCCS(=O)(=O)Nc1ccc(F)c(C(=O)c2c[nH]c3ncc(-c4ccc(Cl)cc4)cc23)c1F [vemurafenib] .
label 0

State whether 0.8 exceeds relative viability recorded for COc1ccc2c3n(c(=NC(=O)c4cccnc4)nc2c1OC)CCN3 .
label 1

State whether 0.8 exceeds relative viability recorded for C=CC(=O)N1CCC[C@@H](n2nc(-c3ccc(Oc4ccccc4)cc3)c3c(N)ncnc32)C1 .
label 1

State whether 0.8 exceeds relative viability recorded for Nc1nc2[nH]cc(CCc3ccc(C(=O)N[C@@H](CCC(=O)O)C(=O)O)cc3)c2c(=O)[nH]1 [Pemetrexed; Pemetrexed Disodium] .
label 0

State whether 0.8 exceeds relative viability recorded for Nc1nc(Cl)nc2c1ncn2[C@@H]1O[C@H](CO)[C@@H](O)[C@@H]1F [Clofarabine] .
label 1

State whether 0.8 exceeds relative viability recorded for Clc1ccc(C(c2ccccc2Cl)C(Cl)Cl)cc1 (configuration not stated) .
label 0

State whether 0.8 exceeds relative viability recorded for CC[C@H](CO)Nc1nc(NCc2ccccc2)c2ncn(C(C)C)c2n1 [ROSCOVITINE; Roscovitine(CYC202); Roscovitine] .
label 0
